METHOD_NOTES: Clearance in dog at 2 mg/kg, iv
Format: ADME, organism-based, Canis lupus familiaris
Parameters: dose 2 mg/kg, route intravenous
ASSAY_CONDITIONS: in vivo
READOUT_KIND: clearance (mL/min/kg)
Supply the numeric figure in mL/min/kg, leaving out any unit text.

Q: Tell me the measured clearance of `CCNc1nc2sc(-c3cccc([C@H](C)NC(C)=O)c3)nc2c2c1ncn2C` , please.
Ans: 43

---

Entries and their pIC50 values follow.
TARGET_DESC: Inhibitor of nuclear factor kappa-B kinase subunit alpha (Homo sapiens, UniProt O15111)
Sequence (O15111 whole entry): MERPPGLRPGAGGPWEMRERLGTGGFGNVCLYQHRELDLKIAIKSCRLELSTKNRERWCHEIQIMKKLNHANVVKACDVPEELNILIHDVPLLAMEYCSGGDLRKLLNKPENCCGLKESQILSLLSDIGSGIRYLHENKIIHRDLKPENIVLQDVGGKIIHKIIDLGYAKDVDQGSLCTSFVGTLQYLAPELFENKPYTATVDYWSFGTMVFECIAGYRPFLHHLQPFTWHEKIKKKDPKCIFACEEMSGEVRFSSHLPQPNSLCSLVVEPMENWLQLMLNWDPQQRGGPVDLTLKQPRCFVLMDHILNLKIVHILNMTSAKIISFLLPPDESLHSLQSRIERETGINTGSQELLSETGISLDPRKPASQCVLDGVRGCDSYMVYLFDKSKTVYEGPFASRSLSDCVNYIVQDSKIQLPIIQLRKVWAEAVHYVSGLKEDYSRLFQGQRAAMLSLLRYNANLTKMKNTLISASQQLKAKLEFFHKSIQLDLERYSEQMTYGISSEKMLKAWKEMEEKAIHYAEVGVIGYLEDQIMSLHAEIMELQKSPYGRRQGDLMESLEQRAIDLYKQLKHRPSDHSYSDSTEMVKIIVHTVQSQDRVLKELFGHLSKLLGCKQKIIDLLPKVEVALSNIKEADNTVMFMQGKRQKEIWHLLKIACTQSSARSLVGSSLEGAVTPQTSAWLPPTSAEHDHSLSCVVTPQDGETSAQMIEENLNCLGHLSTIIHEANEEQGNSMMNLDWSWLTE
METHOD_NOTES: Inhibition of IKK1
pIC50 here is simply -log10 of the concentration when that concentration is written in mol/L.

Use the examples below as a reference point.
COMPOUND	OBSERVED_RESULT
CCNc1nc2sc(-c3cccc([C@H](C)NC(C)=O)c3)nc2c2c1ncn2C	6.38
CNc1nc2sc(-c3cccc(C(C)NC(C)=O)c3)nc2c2c1ncn2C (stereo not drawn)	6.37

Now look at this entry.
Q: What pIC50 value was documented for this compound, `CNc1nc2sc(-c3cccc([C@H](C)NC(C)=O)c3)nc2c2c1ncn2C` ?
Ans: 6.64

---

METHOD_NOTES: Half life in rat at 2 mg/kg, iv and 10 mg/kg, po
Format: ADME, organism-based
ASSAY_CONDITIONS: in vivo
READOUT_KIND: half-life (h)
# unit: h | format: bare number

Please review the following examples before continuing.
COMPOUND	UNIT_SYMBOL	half-life
CCNc1nc2sc(-c3cccc([C@H](C)NC(=O)c4cc(C)on4)c3)nc2c2c1ncn2C	h	2.8
CCNc1nc2sc(-c3cccc([C@H](C)NC(=O)c4cccc(S(C)(=O)=O)c4)c3)nc2c2c1ncn2C	h	1.5
CCNc1nc2sc(-c3cccc([C@H](C)NC(=O)C4CCNCC4)c3)nc2c2c1ncn2C	h	2.9
CCNc1nc2sc(-c3cccc([C@H](C)NC(C)=O)c3)nc2c2c1ncn2C	h	0.6

Q: Can you look up the measured half-life of `CCNc1nc2sc(-c3cccc([C@H](C)NC(=O)C4(C)CC4)c3)nc2c2c1ncn2C` for me?
Ans: 2

---

METHOD_NOTES: Half life in mouse at 2 mg/kg, iv and 10 mg/kg, po
Assay type: ADME, organism-based
ASSAY_CONDITIONS: in vivo
READOUT_KIND: half-life (min)
State the answer as a number, implicitly in min.

Q: Please look up its half-life: `CCNc1nc2sc(-c3cccc([C@H](C)NC(C)=O)c3)nc2c2c1ncn2C`
Ans: 114

---

TARGET_DESC: Inhibitor of nuclear factor kappa-B kinase subunit beta (Homo sapiens, UniProt O14920)
Sequence (O14920 whole entry): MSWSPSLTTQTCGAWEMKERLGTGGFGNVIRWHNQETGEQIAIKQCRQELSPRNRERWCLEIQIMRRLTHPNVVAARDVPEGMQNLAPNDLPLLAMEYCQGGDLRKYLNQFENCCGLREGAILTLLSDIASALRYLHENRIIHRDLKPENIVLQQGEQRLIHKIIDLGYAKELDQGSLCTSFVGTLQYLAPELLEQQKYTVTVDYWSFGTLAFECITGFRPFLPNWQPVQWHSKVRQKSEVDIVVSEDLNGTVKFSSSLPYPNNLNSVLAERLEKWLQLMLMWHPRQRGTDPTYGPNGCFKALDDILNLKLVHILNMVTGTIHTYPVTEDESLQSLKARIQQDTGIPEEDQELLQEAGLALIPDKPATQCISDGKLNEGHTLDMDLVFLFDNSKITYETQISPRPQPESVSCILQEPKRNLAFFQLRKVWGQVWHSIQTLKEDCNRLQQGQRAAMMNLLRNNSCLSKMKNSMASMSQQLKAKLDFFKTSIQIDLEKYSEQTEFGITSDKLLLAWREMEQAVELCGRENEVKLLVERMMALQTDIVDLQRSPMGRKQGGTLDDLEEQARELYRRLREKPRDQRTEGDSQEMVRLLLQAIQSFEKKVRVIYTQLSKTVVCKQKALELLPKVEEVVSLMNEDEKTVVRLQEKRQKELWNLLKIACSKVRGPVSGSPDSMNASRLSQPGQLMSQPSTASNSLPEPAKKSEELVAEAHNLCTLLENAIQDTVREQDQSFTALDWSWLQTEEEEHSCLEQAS
METHOD_NOTES: Inhibition of IKK2
Doc: threshold 40 nM (exclusive). Items with IC50 beneath it return MET; others return NOT MET.

COMPOUND	LABEL_VALUE
CC(=O)N[C@@H](C)c1cccc(-c2nc3c(nc(NCCN)c4ncn(C)c43)s2)c1	NOT MET
CCNc1nc2sc(-c3cccc(C(C)(C)NC(C)=O)c3)nc2c2c1ncn2C	MET
CC(=O)N[C@@H](C)c1cccc(-c2nc3c(nc(N(C)C)c4ncn(C)c43)s2)c1	NOT MET

In the following, a different compound is considered.
Q: Lab log: compare recorded IC50 with 40 nM; is it strictly lower for `CCNc1nc2sc(-c3cccc([C@H](C)NC(=O)C4CCNCC4)c3)nc2c2c1ncn2C` ?
Ans: MET

---

METHOD_NOTES: Volume of distribution at steady state in mouse at 2 mg/kg, iv and 10 mg/kg, po
Format: ADME, organism-based
ASSAY_CONDITIONS: in vivo, read-out: Vdss
READOUT_KIND: Vd (L/kg)
Use L/kg as the unit, but write only the number.

Q: Consider the molecule shown here: `CCNc1nc2sc(-c3cccc([C@H](C)NC(C)=O)c3)nc2c2c1ncn2C` What is its recorded Vd?
Ans: 1.5

---

METHOD_NOTES: Volume of distribution at steady state in rat at 2 mg/kg, iv and 10 mg/kg, po
Format: ADME, organism-based
ASSAY_CONDITIONS: in vivo, read-out: Vdss
READOUT_KIND: Vd (L/kg)
// return numeric value only (unit: L/kg, not printed)

Q: Query (molecule): `CCNc1nc2sc(-c3cccc([C@H](C)NC(C)=O)c3)nc2c2c1ncn2C` ; field requested: Vd
Ans: 2.3
